Data credit: patent US20050084491A1

TARGET OF ASSAY: CNTO95
ASSAY NAME: isothermal titration calorimetry, peptide titrated into 3 µM CNTO95, 25° C.
READOUT LABEL: Kd (µM)

INSERT INTO assay_data (binder, readout_label, assay_value) VALUES
  ('DFRSWWDLSGYR (synthetic linear peptide, phage-display consensus (mimotope); also called 12p1; 12pG1) [CEN2319]', 'Kd', 4.2);
